# Test target: Corticotropin-releasing factor receptor 1 (Homo sapiens, UniProt P34998)
# Sequence (P34998 whole entry): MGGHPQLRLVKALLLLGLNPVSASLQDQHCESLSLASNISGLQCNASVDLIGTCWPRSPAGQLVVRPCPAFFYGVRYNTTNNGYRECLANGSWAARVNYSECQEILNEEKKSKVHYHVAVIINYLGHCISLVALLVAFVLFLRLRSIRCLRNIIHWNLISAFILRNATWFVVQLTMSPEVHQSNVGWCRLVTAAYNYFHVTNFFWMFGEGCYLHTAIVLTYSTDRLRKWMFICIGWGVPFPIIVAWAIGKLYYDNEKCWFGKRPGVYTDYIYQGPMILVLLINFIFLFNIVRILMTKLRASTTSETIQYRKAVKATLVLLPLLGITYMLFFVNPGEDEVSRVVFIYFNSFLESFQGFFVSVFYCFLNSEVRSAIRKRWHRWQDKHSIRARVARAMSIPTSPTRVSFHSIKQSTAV
Endpoint name: Ki (nM)
Reply numerically in nM, unit not repeated.

# input compound: `CCCCN(CC)c1cc(C)nc2c(-c3c(Cl)cc(Cl)cc3Cl)c(C)nn12` ; wanted: its Ki
93

Field request: Ki | item: CCCC1CCCCN1c1cc(C)nc2c(-c3ccc(Cl)cc3Cl)c(C)nn12 (stereo unspecified)
6.4

Please give the measured Ki for this compound: `Cc1cc(N2CCCCC2)n2nc(C)c(-c3ccc(Cl)cc3Cl)c2n1`
41

Which Ki value is on record for `CCCCN(OC)c1cc(C)nc2c(-c3ccc(Cl)cc3Cl)c(C)nn12` ?
216

What Ki value was documented for this compound, `Cc1cc(N2CCOCC2)n2nc(C)c(-c3ccc(Cl)cc3Cl)c2n1` ?
310

Returns the measured Ki for the input compound. Input: `CCCCN(CC)c1cc(C)nc2c(-c3ccccc3Cl)c(C)nn12`
15
